PROTOCOL NOTES: yeast display, Sf9 membrane polyspecificity reagent, FACS + sequencing; frameworks hold sequencing errors

SEQUENCE CONTENT | polyreactivity (PSR sort gate)
QVQLVESGGGLVQAGGSLRLSCAASGSIFGGYAMGWYRQAPGKERELVAAISSSGVRTYYADSVKGRFTISRDNAKNTVYLQMNSLKPEDTAVYYCAADRSRSIIPFDYWGQGTQVTVSS | low polyreactivity
QVQLVESGGGLVQAGGSLRLSCAASGRIFGDYAKGWYRQAPGKERELVAAIRFDTGSTYYADSVKGRFTISRDTAKNTVYLQMNSLKPEDTAVYYCAAQHRGVQVTFGEYDYWGQGTQVTVSS | low polyreactivity
QVQLVESGGGLVQAGGSLRLSCAASGRILTSNAMGWYRQAPGKERELVAAISWSGGSTYYADSVKGRFTISRDNAKNTVYLQMNSLKPEDTAVYYCAARSIGRAGGYHYWGQGTQVTVSS | low polyreactivity
QVQLVESGGGLVQAGGSLRLSCAASGRTFRNNAMGWYRQAPGKERELVAAISRTGGRTYYADSVKGRFTISRDNAKNTVYLQMNSLKPEDTAVYYCNAAYLVREYDYWGQGTQVTVSS | high polyreactivity
QVQLVESGGGLVQAGCSLRLSCAASGRTFYFYTMGWYRQAPGKVRELVAAISWSGGSTYYADSVKGRFTISRDNAKYTVYLQMNSLKPEDTAVYYCNAVFFKGSESGLDYWGQGTQVTVSS | high polyreactivity
QVQLLESGGGKVQAVGSLRLSCAASGSIDDWYAMGWYRQAPGKERELLAAINEGGGSTYYADSVKGRFTISRDNAKNTVYFQMNILKPEDTAFYYCNAELSFRYPVFRELDYWGQGSQVTVSS | low polyreactivity
QVQLVESGGGLVQAGGSLRLSCAASGFTFRYYTMGWYRQAPGKERELVASISRRGGSTYYADSVKGRFTISRDNAKNTVYLQMNSLKPEDTAVYYCNTLSQVFASRAPKFDYWGHGTQVTVSS | high polyreactivity
HVQLVEAGGGLVQAGGSLRVSCAASGFTIHYNAMGWYRQAPGKGWELVATISKSAGITSYADSVKGRFTISRDNATNTVYFPMNSLKPEDTAVYYCAADKSYRRVYYWGQGSQVTVSS | low polyreactivity
QVQLVESGGGLVQAGGRLRLSCAASGINLGRYAMGWYRQAPGKERELVASISWSGGSTYYADSVKGRFTISRDNAKNTVYLQMNSLIPEDPAVYYCAATYWKSRYGVRGYPFGYWGQGTQVTVSS | high polyreactivity
QVQLVESGGGLVQAGGSLRLSCAASGSTFKSYAMGWYRQAPGKERELVAAISYRGGSTYYADSVKGRFTISRDNAKNTVYLQMNSLKPEDTAVYYCAAVKLYSYYYWGQGTQVTVSS | high polyreactivity
QVHLVESGAGLVQAGGSLRISCAASGIIFRLYGLGWYRQAPGKERELVAGINTGGSTSADSVKGRFTISRDNAKNTVYLQMNSLKPEDTAVYYCARDPGYYHPWYRYDYWGQGTQVTVSS | low polyreactivity
QVQLVESGGGLVQAGGSLRLSCAASGYNFGWYAMGWYRQAPGKERELVAGISSAGSTNYADSVKGRFTISRDNAKNTVYLQMNSLKPEDTSVDYCARDKWGLRYAPTVDYWGQGTQVTVSS | high polyreactivity
QVQLVESGGGLVQAGGSLRLSCAASGSIFLRYAMGWYRQAPGKERELVASITSGGSRYYADSVKGRFTISRDNAKNTVYFQMNSLKPEDTAVYYCNALPYRYRRYDYWGQGTQVTVSS | low polyreactivity
QVQLVESGGGLVQAGGSLRLSCAASGFIFRVNAMGWYRPAPGKERELVAAITKSGGSTYYADSVKGRFTISRDNAKNTVYLQMNSLKPEDTAVYYCNVVWYEGYGHWGQGTQVTVSS | low polyreactivity
QVQLVESGGALVQAGGSLRLRCAASGTFFIYAMGWYRQAPGKEREFVATISTGGSTNYADSVKGRFTISRDNAKNTVYLQMNSLKPADTAVYYCAAEWLYPHDGGYRRPMDYWGQGTKVTVSS | low polyreactivity
QVQLVESGGCLVQAGGSLRLSCAASGRNFGTYAMGWYRQATGKERELVAASTRGGTTYYADSVKGRFTISRDNAKNTVYLQMNSLTQEDTAVYYCATGPAIRYDYWGQGTQVTVSS | low polyreactivity
QVHLVASGGGLVQAGGSLRLSCAASGRSFYEYAMGRYRQEPGKERELVAGITSGGSTNYADSVKGRFTISRDNAKNTVYLQMTSLKPEDTAVYYCADSYWGYEYDYWGQGTQVTVSS | low polyreactivity
QVQLVESGGGLVQAGGSLRLSCAASGRTFAKYAMGWYRQAPGKERELVAAISDSGGSTYYADSVKGRFTISRDNAKNTVYLQMNSLKPEDTAVYYCAADGRYTYYWGQGTQVTVSS | high polyreactivity
QVQLVESGGGLVQAGGSLRLSCAASGRIFKYYAMGWYREAPGKERELVAAIDWRGDSTYYADSVKGRFTISRDHAKNTVYLQMNSLKPEDTAVYYCAVVGTRGYHGYDSWGQGTQVTVSS | low polyreactivity
QVQHVESGGGLVQAGGSLRLSCAASGRIYRKAMGWYRQAPGKERELVAVITRGGSTNYADSVKGRFTISRDNAKNSVYLQMNSLKPEDTAVYYCAATYSYRFSSFDYWGQGTQVTVSS | high polyreactivity
QVQLVESGGGLVQGGGSLRLSCAASGRTLSYYAKGWYRQAPGKERELVADISWSGGSTYYADSVKGRFTISRDNAKNTVYLQMNSLKPEDTAVYYCAARVPGSIRSVGSVKQKYYYWGQGTQVTVSS | high polyreactivity

---

PROTOCOL NOTES: yeast display, Sf9 membrane polyspecificity reagent, FACS + sequencing; frameworks hold sequencing errors
OBSERVATION TYPE: polyreactivity (PSR sort gate)

SEQUENCE CONTENT | MEASURED
QVQLVESGGGLVQAGGSLRLSCAASGSTFYRYAMGWYRQAPGKERELVASLTGSGGRTYYADSVKGRFTISRDNAKNTVYLQMNSLKPEDTAVYYCAARLYVRSVIGNAIVKYDYWGQGTQVTVSS | high polyreactivity
QVQLVESGGGLVQAGGSLRLSCAASGSIFESYAMGWYRQAPGKERELVADITYDGGITYYADSVKGRFTISRDNAKNTVYLQMNSLKPEDTAVYYCATEYRYWQSDYSTYFPYDYWGQGTQVTVSS | low polyreactivity
QVQLVESGGGLVQAGGSLRLSCAASGSIFTPYAMGWYRQAPGKERELVAAITSGGSTYADSVKGRFTISRDNAKNTVYLQMNSLKPEDTAVYYCAADRSYVYAGADMYYWGQGTQVTVSS | low polyreactivity
QVQLVETGGGLVQAGGSHRLSCAASGFTFWYNAMGWYRPAPGKERELVAAIDWRGSSTYYADSVNGRFTISRDNAKNTVYLQMNSLKPEDTAVYYCAADFGDRYVYWAQGTQVTVSS | high polyreactivity
QVQLVESGGGLVQAGGSLRLSCAASGLTFVSYVMGWYRQAPGKERELVAAISSSGGRTYYADSVKGRFTISRDNAKNTVYLQMNSLKPEDTAVYYCAVYGYHEGGYWGQGTQVTVSS | high polyreactivity
QVQLVESGGGLVQAGGSLRLSCAASGRTSFGYAMGWYRQAPGKERELVAVISIGGTTYYADSVKGRFTISRDNAKNTVYLQMNSLKPEDTAVYYCAKDAETYYWGSYKSLYDYWGQGTQVTVSS | low polyreactivity
QVQLVESGGGLVQAGGSLRLSCAASGSILRRNAMGWYRPAPGKERELFAGISRGGNTNYADSVNGRFTISRDNAKNTVYLQMNSLKPEDTAVYYCDTDGYGRWGRLTFTYWGQGTQVTVSS | low polyreactivity
QVQLVESGGGLVQAGGSLRLSCAASGFTFGDYAMGWYRQAPGKERELVAVISSGGSTYYADSVKGRFTISRDNAKNTVYLQMNSLKPEDTAVYYCAKYVFRVWYHVFEVDYWGQGTQVTVSS | low polyreactivity
QVQLVESGGGLVQEGGSLRLSCAASGFTLHVYAMGWYRQAPGKERELVAAISTGGNTNYADSVKGRFTISRDNAKNTVYLQMNSLKPEDTAVYYCNARYTSRRSRRPYYYWGQGTQVTVSS | high polyreactivity
QVQLVESGGGLVQAGGSLRLSCAASGTFDYYDMGWYRQAPGKERELVAGITSGGSTDYADSVKGRFTISRDNAKNTVYLQMNSLKPEDTAVYYCAADPFRIHTYDYWGQGTQVTVSS | low polyreactivity
QVQLVESGGGLVQAGGSLRLSCAASGFIFRYYTMGWYRQAPGKERELVAAITSGGSTTYADSVKGRFTISRDNAKNTVYFQMNSLKPEDTAVYYCNTAYWYSLYDYWGQGTQVTVSS | high polyreactivity
QVQLVESGGGLVQAGGSLRLSCAASGRIFYSYAMGWYRQAPGKERELVAAITESGGSTNYADSVKGRFTISRDNAKNTVYLQMNSLKPEDTEVYYCNARYKLTFNLYNYWGQGTQETVSS | low polyreactivity
QVQLVESGGGLVQAGGSLRLSCAASGSIFNWYAMGWYRQARGKERELVAAISYSGTRTYYADSVKGRFTISRDNAKNTVNLQLNSLKPEDTAVYYCNRAYYTRWYTKFDYWGQGTQVTVSS | high polyreactivity
QVQLVESGGGLVQAGGSLRLSCAASGITSRRYAMGWYRKAPGKEREFVAAIRTICGSTYYADSVKGRFTISRDNAKNTVYLQMNSLKPEDTAVYYCAARYFLSRSGASHLDSWGQGTQVTVSS | high polyreactivity
QVQLVESGGGLVQAGGSLRLSCAASGSTFLVYAMGWYRQAPGKERELVAVIDNGGDTYYADSVKGRFTISRDNAKNTVYLQMNSLKPEDTEVYYCAADMSYLGYWEYDSWGQGTQVTVSS | low polyreactivity
QVQLVESGGGLVQAGGSLRLSCAASGRTFHIYAMGWYRQAPGKERELVAAIRGRSGSTYYADSVKGRFTISRDNAKNTVYLQMNSLKPEDTAVYYCAVGRYPYGSARYRFDYWGQGTQVTVSS | high polyreactivity
QVQLVESGGGLLQSGGSLRLSCAASGFIFRSYAMGWYRQAPGKEREFVASISSRGGTTYYADSVKGRFTISRDNAKKTVYLQMNRLKPEDTAVYYCAADYFRWAGWGYEYWGQGSQVTVSS | high polyreactivity
QVQLVESGGGLVQAGGSLRLSCAASGYTFALYAMGWYRQAPGKERELVAAITDSDGSTYADSVKGRFTISRDNAKNTVYLQMNSLKPEDNAVYYCAGRDPHLQGSSYLSYLTMDYWGQGTQVTVSS | low polyreactivity
QVQQQESGGGLVQVGGSQRLSCAASGNIFYNYAMGWYRHAQGKEREFDATINHGTSINYADSVKGRFTISRDNAKNTVYLQMNSLKPEDTAVYYCAADLSWTDNLFYWGQGTQVTVSS | low polyreactivity
QVQLVESGGGLVQAGGSLRLSCAASGRIIDNNAMGWYRPAPGKERQLVAAISWSGTSTYYADSVKGRFTISRDHAKNTVYLQMNSLKPEDTAVYYCNADSWFYTRFDYWGQGTQVTVSS | high polyreactivity
QVQLVESGGGLVQAGGSLRLSCAASGSTFLRNVMGWYRQAPGKERELVAAISSRGGSTHYADSVQGRFTISRDNAKHTVYLQMNSLKPEDTAVYYCNAERTAAQYVRAAYDYWGLGTQVTVSS | low polyreactivity
